% of Normalized, TF/FVIIa/FX complex assay, Ab 50 nM for assorted binders
molecular target: recombinant human TFPI (tissue factor pathway inhibitor) (human, UniProt P10646 29-304); experiment: cell-based or functional assay
Output should be the measured figure followed by the unit it is expressed in.

For orientation, consider the following solved cases.
binder: clone 12 (antibody, V domains shown, human IgG4/kappa IgG as purified; also called No. 12 antibody) VH: EVQLVESGGGLVKPGGSLRLSCAASGFTFSSYAMNWVRQAPGKGLEWVGTITTGGSHTYYADSVEGRFTISRDNAKNSLYLQMNSLRAEDTAVYYCARQDGHFLMDYWGQGTLVTVSS VL: DVVMTQTPLSLPVTLGQPASISCKSSPSLLDIDGKTYLNWLQQRPGQSPKRLIYLVSKLDSGVPDRFTGSGSGTDFTLKISRVEAEDVGVYYCWQGTHFPFTFGQGTKVEIKR
value: 94.6%
//
binder: clone 13 (antibody, V domains shown) VH: EVQLVESGGGLVKPGGSLRLSCAASGFTFSSYAMNWVRQAPGKGLEWVGTITTGGSHTYYADSVEGRFTISRDNAKNSLYLQMNSLRAEDTAVYYCARQDGNFLMDYWGQGTLVTVSS VL: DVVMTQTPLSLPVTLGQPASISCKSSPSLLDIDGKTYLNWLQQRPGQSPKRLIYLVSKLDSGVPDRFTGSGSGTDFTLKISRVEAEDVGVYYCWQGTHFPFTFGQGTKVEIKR
value: 96.5%
//
binder: clone 1023 (antibody, V domains shown, scFv on yeast at selection; human IgG4/kappa IgG as purified) VH: EVQLVESGGGLVKPGGSLRLSCAASGFTFSSYAMNWVRQAPGKGLEWVGTITTGGSYTYYADSVDGRFTISRDNAKNSLYLQMNSLRAEDTAVYYCARQDGNFLMDYWGQGTLVTVSS VL: DVVMTQTPLSLPVTLGQPASISCKSSQSLLDIDGKTYLNWLQQRPGQSPKRLIYLVSKLDSGVPDRFTGSGSGTDFTLKISRVEAEDVGVYYCWQGTHFPFTFGQGTKVEIKR
value: 80.3%

Exam item: Quick one: % of Normalized, TF/FVIIa/FX complex assay, Ab 50 nM of clone 1202 (antibody, V domains shown, scFv on yeast at selection; human IgG4/kappa IgG as purified; also called No. 1202 antibody) VH: EVQLVESGGGLVKPGGSLRLSCAASGFTFSSYAMNWVRQAPGKGLEWVGTITTGGSYTYYADSVDGRFTISRDNAKNSLYLKMNSLRAEDTAVYYCARQDGNFLMDYWGQGTLVTVSS VL: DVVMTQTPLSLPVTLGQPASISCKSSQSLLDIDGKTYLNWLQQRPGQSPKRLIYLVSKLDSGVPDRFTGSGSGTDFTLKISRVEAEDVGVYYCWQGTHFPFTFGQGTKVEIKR ?
Marked response: 99.4%
